Each recorded value in this set is attributed to patent US8143366B2.

experiment: Ex vivo hydrolysis in rat plasma at 37° C.; format: in vitro ADME; details: Table 2 conjugates, average of three experiments ± s. d.
MEASURE: half-life at […] (min)
// note: answer is a bare numeric in min

Worked cases, answers included:
COCCOCCOCCOCCOC(=O)NC(Cc1ccc(OC(=O)N[C@@H](Cc2ccc(O)cc2)C(=O)NCC(=O)NCC(=O)N[C@@H](Cc2ccccc2)C(=O)N[C@@H](CC(C)C)C(=O)O)cc1)C(=O)OC (stereo partly shown) | 15
COCCOCCOCCOCCOCc1ccc(OC(=O)N[C@@H](Cc2ccc(O)cc2)C(=O)NCC(=O)NCC(=O)N[C@@H](Cc2ccccc2)C(=O)N[C@@H](CC(C)C)C(=O)O)cc1 | 1.62
CCCCCCCCCCCCOCCOCCOCCOCCOCCOCCOCCOCCOc1ccc(OC(=O)N[C@@H](Cc2ccc(O)cc2)C(=O)NCC(=O)NCC(=O)N[C@@H](Cc2ccccc2)C(=O)N[C@@H](CC(C)C)C(=O)O)cc1 | 140

Field: next molecule
Exercise: What measured half-life at […] goes with `COCCOCCOCCOCCOc1ccc(OC(=O)N[C@@H](Cc2ccc(O)cc2)C(=O)NCC(=O)NCC(=O)N[C@@H](Cc2ccccc2)C(=O)N[C@@H](CC(C)C)C(=O)O)cc1` ?
Solution: 54.8
